Listed here are molecules together with their documented Ki.
MEASURED TARGET: JAK3 (Homo sapiens, UniProt P52333)
Sequence (P52333 1-1124): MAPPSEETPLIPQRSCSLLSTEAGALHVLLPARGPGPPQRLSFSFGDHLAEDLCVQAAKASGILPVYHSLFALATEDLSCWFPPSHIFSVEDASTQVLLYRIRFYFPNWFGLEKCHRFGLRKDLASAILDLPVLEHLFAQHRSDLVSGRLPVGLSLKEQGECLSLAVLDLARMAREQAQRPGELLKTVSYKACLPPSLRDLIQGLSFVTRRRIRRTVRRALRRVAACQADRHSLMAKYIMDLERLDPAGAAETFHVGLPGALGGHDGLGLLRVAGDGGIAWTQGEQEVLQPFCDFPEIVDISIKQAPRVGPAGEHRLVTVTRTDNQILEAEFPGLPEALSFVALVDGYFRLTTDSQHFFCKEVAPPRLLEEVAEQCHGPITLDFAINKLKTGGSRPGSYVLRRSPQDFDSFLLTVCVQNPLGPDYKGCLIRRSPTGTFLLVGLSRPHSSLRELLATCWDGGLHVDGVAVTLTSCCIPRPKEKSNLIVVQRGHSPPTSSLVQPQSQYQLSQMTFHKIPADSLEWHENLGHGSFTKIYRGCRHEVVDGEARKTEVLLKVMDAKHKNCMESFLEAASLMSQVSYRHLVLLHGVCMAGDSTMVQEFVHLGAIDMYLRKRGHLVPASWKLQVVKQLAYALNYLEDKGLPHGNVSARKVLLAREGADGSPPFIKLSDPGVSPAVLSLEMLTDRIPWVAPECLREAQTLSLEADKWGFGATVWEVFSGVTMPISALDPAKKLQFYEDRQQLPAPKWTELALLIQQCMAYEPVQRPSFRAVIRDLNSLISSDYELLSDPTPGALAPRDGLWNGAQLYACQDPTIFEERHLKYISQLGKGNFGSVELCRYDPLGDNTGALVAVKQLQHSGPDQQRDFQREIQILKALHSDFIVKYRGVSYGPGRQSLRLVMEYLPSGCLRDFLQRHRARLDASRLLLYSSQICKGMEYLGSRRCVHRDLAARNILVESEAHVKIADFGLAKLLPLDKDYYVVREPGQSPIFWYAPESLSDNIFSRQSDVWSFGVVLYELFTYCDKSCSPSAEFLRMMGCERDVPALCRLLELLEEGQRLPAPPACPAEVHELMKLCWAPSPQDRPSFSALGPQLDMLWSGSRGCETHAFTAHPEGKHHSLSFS

| MOLECULE | MEASURED |
| --- | --- |
| Fc1ccc(/C=C/c2ncnc3[nH]ccc23)cc1 [Compound 5] | < 500 nM |
| C=C(c1ncnc2[nH]ccc12)C1CCCC1 [Compound 18] | < 500 nM |

Could you please provide reported Ki for C1=C(c2ncnc3[nH]ccc23)CCSC1 [Compound 13] ? Thanks!
< 500 nM

Could you please provide reported Ki for C=Cc1ncnc2[nH]ccc12 [Compound 14] ? Thanks!
500 to 5000 nM

Could you please provide reported Ki for O=C(CC(F)(F)F)N1CC=C(c2ncnc3[nH]ccc23)CC1 [Compound 16] ? Thanks!
> 5000 nM
